Test: qHTS assay to identify small molecule antagonists of the androgen receptor (AR) signaling pathway - cell viability counter screen (AID 743033; further: nearly all actives have a fitted effect of over 45% in size)
Details: AR-bla HEK293 viability, CellTiter-Glo luminescence, 16 h; series mostly up to 58.5 µM
Results filed as inconclusive are left out. Activity calls are given as the source filed them. The call rests on the fitted dose curve; in most records, active means well fitted cell-killing curve with a large enough effect in the repeat runs; inconclusive means weak or mixed curves; inactive means no such curve, though single readings can be large or run the other way.
Can you answer with just one of these options? active, inactive

[Q] I'd appreciate the recorded outcome for Cc1ccccc1-n1c(CF)nc2ccc(N)cc2c1=O from this test.
[A] inactive

[Q] I'd appreciate the recorded outcome for CNC(=O)Oc1ccccc1C(=O)Nc1ccccc1 from this test.
[A] inactive

[Q] I'd appreciate the recorded outcome for C[N+]1(C)[C@@H]2CC[C@H]1CC(OC(=O)c1c[nH]c3ccccc13)C2 (some centres undefined) from this test.
[A] inactive

[Q] I'd appreciate the recorded outcome for CCC1(C)CC(=O)NC(=O)C1 from this test.
[A] inactive

[Q] I'd appreciate the recorded outcome for N#CC1(N2CCCCC2)CCCCC1 from this test.
[A] inactive

[Q] I'd appreciate the recorded outcome for CN1[C@@H]2CC[C@H]1CC(OC1c3ccccc3CCc3ccccc31)C2 (some centres undefined) from this test.
[A] inactive

[Q] I'd appreciate the recorded outcome for Cc1ccc(N(SC(F)(Cl)Cl)S(=O)(=O)N(C)C)cc1 from this test.
[A] active

[Q] I'd appreciate the recorded outcome for CCCSc1cc(OC)c(CCN)cc1OC from this test.
[A] inactive

[Q] I'd appreciate the recorded outcome for Clc1ccc2c(c1)C(c1ccccc1)=NCc1nncn1-2 from this test.
[A] inactive

[Q] I'd appreciate the recorded outcome for CN1[C@H]2CC[C@@H]1[C@@H](C(=O)O)[C@@H](OC(=O)c1ccccc1)C2 from this test.
[A] inactive

[Q] I'd appreciate the recorded outcome for C/C=C(\CC)C(=O)NC(N)=O from this test.
[A] inactive

[Q] I'd appreciate the recorded outcome for C[C@@H](CO)NC(=O)[C@@H]1C=C2c3cccc4[nH]cc(c34)C[C@H]2N(C)C1 from this test.
[A] inactive

[Q] I'd appreciate the recorded outcome for O=C(OCCN1CCCCC1)C(O)(c1ccccc1)c1ccccc1 from this test.
[A] inactive

[Q] I'd appreciate the recorded outcome for CNC(=O)OCC[N+](C)(C)C from this test.
[A] inactive

[Q] I'd appreciate the recorded outcome for COC(COC(N)=O)C1=C(N2CC2)C(=O)C(C)=C(N2CC2)C1=O (centres undefined) from this test.
[A] inactive

[Q] I'd appreciate the recorded outcome for CC(=O)[C@@]1(O)CC[C@H]2[C@@H]3CCC4=CC(=O)CC[C@]4(C)C3(F)[C@@H](O)C[C@@]21C (some centres undefined) from this test.
[A] inactive

[Q] I'd appreciate the recorded outcome for CCOC(=O)C(O)(c1ccc(Cl)cc1)c1ccc(Cl)cc1 from this test.
[A] active

[Q] I'd appreciate the recorded outcome for C[C@]12CC[C@@H]3c4ccc(OC(=O)N(CCCl)CCCl)cc4CC[C@H]3[C@@H]1CC[C@@H]2OP(=O)(O)O from this test.
[A] inactive

[Q] I'd appreciate the recorded outcome for CN[C@]1(c2ccccc2Cl)CCCCC1=O from this test.
[A] inactive
